Provenance of the data: the supplement of paper PMC6555819

- Tested on: RARg:RXRa (NR concentration 270 nM, RXRa partner concentration 90 nM)
- assay_method_text: PBM binding z-score (relative to random genomic background probes); higher = stronger binding; sequences stand for … in GC…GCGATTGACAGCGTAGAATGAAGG
I'd appreciate it if you could supply PBM binding z-score values for the items below.

Request the reported PBM binding z-score associated with AGAATGAGGTTACCCAAGATCAGGGAAACGCTTG 1.93

Request the reported PBM binding z-score associated with TAGCCTAGGTCATTGGGCCCGTATAGTACGCATC 3.69

Request the reported PBM binding z-score associated with CCTACTGGGCCAAAGGTTATTGATTCCAATGCTC 2.07

Request the reported PBM binding z-score associated with GCAGACAAGTGAAACGCAGGTAACTCAGGGTGGC -0.267

Request the reported PBM binding z-score associated with CGAACTAGCTCATCCAGGACAGTGAATACATTGA -0.191

Request the reported PBM binding z-score associated with TCTATCAGTTGAAGGGCAACCGACGAGTCCGTTT 0.695

Request the reported PBM binding z-score associated with TCATAAAGGTAAATGCTAGGTGAAAGTCCGATCT 1.03

Request the reported PBM binding z-score associated with CAAACTAGGTCACGAAAGGTCCAAGTCGAATGAC 5.23

Request the reported PBM binding z-score associated with GCATATAGGTAAAACAAGGTGAAAGTCCGATTGT 0.353

Request the reported PBM binding z-score associated with GGAACGAGGGCAAGTTCATAGCAGAGTTTGATGG 2.99

Request the reported PBM binding z-score associated with AATGCAGGGTCATCGTAGGCCAGAGTACGCACAG 5.5

Request the reported PBM binding z-score associated with CCTAGTAGGCCAATCTGGGTCACTCAAGGCTTGA 1.43

Request the reported PBM binding z-score associated with CGTCCAAGGCCATAGGAGGTCAGTGAAGACAGAT 2.74

Request the reported PBM binding z-score associated with CGTCAAAGTTCAACTAAAGTAACGTAAAGCACGC 5.9

Request the reported PBM binding z-score associated with AGAATGAGGTTATTAAGAGCAGGGAATTGCGGTC 1.1

Request the reported PBM binding z-score associated with ATATGTAGGTTAGCTGGGGTCATCCAGACTAGGC 4.41

Request the reported PBM binding z-score associated with TCGAGTAGGTTACCAATGGGGCATTGAGCTTTCT 1.1

Request the reported PBM binding z-score associated with CATGCAGGGTCAGCTAGGCCAGAGTAGGGACGGC 4.53

* * *

- Test system: FXR:RXRa (NR concentration 270 nM, RXRa partner concentration 90 nM)
- assay_method_text: PBM binding z-score (relative to random genomic background probes); higher = stronger binding; sequences stand for … in GC…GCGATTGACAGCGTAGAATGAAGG
property_measured: PBM binding z-score
// no unit, no text: just the number

Observed PBM binding z-score on FXR:RXRa (NR concentration 270 nM, RXRa partner concentration 90 nM) for TAGCCTAGGTCATTGGGCCAGTACAGTACGCATC , please. 4.4

Observed PBM binding z-score on FXR:RXRa (NR concentration 270 nM, RXRa partner concentration 90 nM) for TCTGCTAGGTCAGTTGGTCAGCGAACGAGCTGCC , please. 1.05

Observed PBM binding z-score on FXR:RXRa (NR concentration 270 nM, RXRa partner concentration 90 nM) for TCTTGTAGTTCAGCAGGTTAAGAAAGCTGGCCAA , please. 0.786

Observed PBM binding z-score on FXR:RXRa (NR concentration 270 nM, RXRa partner concentration 90 nM) for AGTCGAAGTTCACTAGGTAACGTAAGATTCAGCT , please. 1.2

Observed PBM binding z-score on FXR:RXRa (NR concentration 270 nM, RXRa partner concentration 90 nM) for CGAACTAGGTCAAGGACAGAGAATCTCCGCACGC , please. 3.32

Observed PBM binding z-score on FXR:RXRa (NR concentration 270 nM, RXRa partner concentration 90 nM) for TCTATTAGGTGAAGGGCAACCGACGAGTCCGTTT , please. 0.937

Observed PBM binding z-score on FXR:RXRa (NR concentration 270 nM, RXRa partner concentration 90 nM) for GGAACGAGGGCATTCGACTTGATAGCATGGCGAT , please. 0.596

Observed PBM binding z-score on FXR:RXRa (NR concentration 270 nM, RXRa partner concentration 90 nM) for GGAACGAGGGCAAAGTCGATAGCATCTGTCGACG , please. 0.356

Observed PBM binding z-score on FXR:RXRa (NR concentration 270 nM, RXRa partner concentration 90 nM) for TTACCAAGGTGAGCTTAGGTCGTTGATCCAACTC , please. 0.558

Observed PBM binding z-score on FXR:RXRa (NR concentration 270 nM, RXRa partner concentration 90 nM) for GGAACGAGGGCTAAGTTGATAGCATCTGTCGACG , please. -0.545

Observed PBM binding z-score on FXR:RXRa (NR concentration 270 nM, RXRa partner concentration 90 nM) for ATCTCTAGGTAAAGATAGTGCAGTGAATGCAAAT , please. 0.222

Observed PBM binding z-score on FXR:RXRa (NR concentration 270 nM, RXRa partner concentration 90 nM) for ATATGTAGGTTCTCGGGTCATTCAGTTTGCGCAT , please. 2.58

Observed PBM binding z-score on FXR:RXRa (NR concentration 270 nM, RXRa partner concentration 90 nM) for AGTACGAGGGCAATGAGTTGATAGCACGGGTGGC , please. 0.396

Observed PBM binding z-score on FXR:RXRa (NR concentration 270 nM, RXRa partner concentration 90 nM) for CGAACGAGGGCACGAGTTGATAGCAAATGCCGAT , please. 0.992

Observed PBM binding z-score on FXR:RXRa (NR concentration 270 nM, RXRa partner concentration 90 nM) for TCTCGGAGGACACGAAGATCAGAGCTTTCCAGAG , please. 0.203

Observed PBM binding z-score on FXR:RXRa (NR concentration 270 nM, RXRa partner concentration 90 nM) for TAGCCTACGTCATGGGCCAGTATACCACGCGAAC , please. -0.49

Observed PBM binding z-score on FXR:RXRa (NR concentration 270 nM, RXRa partner concentration 90 nM) for TAGCCTAGGTCATTGGGCCGGTATAGTACGCATC , please. 4.26

Observed PBM binding z-score on FXR:RXRa (NR concentration 270 nM, RXRa partner concentration 90 nM) for TCTTGTAGATCAATAGAGGTTAAGAATGTGCGCT , please. 0.658

Observed PBM binding z-score on FXR:RXRa (NR concentration 270 nM, RXRa partner concentration 90 nM) for TCTAGTAGTTGATTAGGGCAACCGAAACAGCGGA , please. 0.323

Observed PBM binding z-score on FXR:RXRa (NR concentration 270 nM, RXRa partner concentration 90 nM) for TCGAGTAGGTTAGAGGCATTCAGAATGGCGTCGA , please. 0.0736

Observed PBM binding z-score on FXR:RXRa (NR concentration 270 nM, RXRa partner concentration 90 nM) for TAGCCTAGGTCATTCGGGGGCCAGTATAGAAAGC , please. 5.41

Observed PBM binding z-score on FXR:RXRa (NR concentration 270 nM, RXRa partner concentration 90 nM) for CAAACTAGGACAAGGTCAAAGTCGGTTTGTGCCA , please. 4.54

Observed PBM binding z-score on FXR:RXRa (NR concentration 270 nM, RXRa partner concentration 90 nM) for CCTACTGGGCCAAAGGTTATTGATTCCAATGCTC , please. 0.648

Observed PBM binding z-score on FXR:RXRa (NR concentration 270 nM, RXRa partner concentration 90 nM) for GCGACTGGGGCAAAGCAGGTTACCATGAGGTTGG , please. 0.529

* * *

I'd appreciate it if you could supply PBM binding z-score values for the items below.
- System: FXR:RXRa (NR concentration 270 nM, RXRa partner concentration 90 nM)
- assay_method_text: PBM binding z-score (relative to random genomic background probes); higher = stronger binding; sequences stand for … in GC…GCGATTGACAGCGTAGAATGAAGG
// no unit, no text: just the number

Request the reported PBM binding z-score associated with CGTCCAAGGTCATAGGAGGTCCGTGAAGACAGAT 7.45

Request the reported PBM binding z-score associated with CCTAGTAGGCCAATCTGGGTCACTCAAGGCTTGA 0.701

Request the reported PBM binding z-score associated with TGTCAAAGTTCAAAGGTAACGTAAGTATCCACAC 6.82

Request the reported PBM binding z-score associated with TAGCCTAGGTCATTGGGCCAGTAGAGTACGCATC 3.86

Request the reported PBM binding z-score associated with TTACCAAGGAGAAAGGTCGTTGATGCACGCCTTG 1.02

Request the reported PBM binding z-score associated with TCTTGTACATCAAGCAGGTTAAGAAAGCCTGAGT 0.785

Request the reported PBM binding z-score associated with ATCGAAAGGTCGAATGTGAGTATACCCACCCGAA 4.89

Request the reported PBM binding z-score associated with CCTCGGAGGACAACAGGAAGTCAGAGCTGCCAGA -0.229

Request the reported PBM binding z-score associated with AGATGTAGGTTAAGGGTCATTCAGGTTGGTTCGC 5

Request the reported PBM binding z-score associated with TCTCGGCGGACACGAAGGTCAGAGCTTTCCAGAG 0.592

Request the reported PBM binding z-score associated with GGACCAAGGTGAATAGGTCGTTGATGAGTAGGCG 0.798

Request the reported PBM binding z-score associated with ATCTCTAGGTAAAAGTTCAGTAAATCCCGAGGAT 0.994

Request the reported PBM binding z-score associated with ATTTCTAGGTAAAAGTTCAGTGAATCCCGAGGAT 1.14

Request the reported PBM binding z-score associated with CGAACTAGGTCAGAACAGGACAGTGAAGGATGAT 1.69

Request the reported PBM binding z-score associated with GCTTGTAGATCAAGATTAAGAAAGACTAAGCTAA -0.857
